Source listed as patent US20140294898A1.

Each item that follows carries a reported IC50.
molecular target: T1, hPDL1(19-239)-TVMV-His (human, UniProt Q9NZQ7 19-239); test: HTRF competition, PD-1-Ig binding to PD-L1-His
T1 construct: The text says amino acids 18-239, the construct name says 19-239; Expressed in HEK293T cells; Used at 10 nM final in the HTRF assay; also called PD-L1-His; PD-L1-TVMV-His
T1 sequence (Q9NZQ7 other isoform, or with tags, fused parts or gaps limits assumed): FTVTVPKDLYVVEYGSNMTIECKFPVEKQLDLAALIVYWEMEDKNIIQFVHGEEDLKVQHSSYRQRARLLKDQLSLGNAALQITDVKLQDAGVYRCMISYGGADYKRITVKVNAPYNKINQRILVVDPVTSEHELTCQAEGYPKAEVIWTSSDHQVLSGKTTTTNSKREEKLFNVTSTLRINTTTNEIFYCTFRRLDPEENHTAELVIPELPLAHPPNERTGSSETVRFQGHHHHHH
Positions of bridges follow the written chain, without caps; N, C: chain ends. Non-standard residues stand in square brackets, D forms with d. 3Pal = N[C@@H](Cc1cccnc1)C(=O)O; NMeNle = CCCC[C@H](NC)C(=O)O; NMeA = CN[C@@H](C)C(=O)O; Sar = CNCC(=O)O
REPORTED METRIC: IC50 (nM)

• {CH2CO}-F[NMeA]NPAL[Sar]WSW[NMeNle][NMeNle]RCG-NH2 (thioether N-14; SMILES CCCC[C@H]1C(=O)N(C)[C@@H](CCCC)C(=O)N[C@@H](CCCNC(=N)N)C(=O)N[C@H](C(=O)NCC(N)=O)CSCC(=O)N[C@@H](Cc2ccccc2)C(=O)N(C)[C@@H](C)C(=O)N[C@@H](CC(N)=O)C(=O)N2CCC[C@H]2C(=O)N[C@@H](C)C(=O)N[C@@H](CC(C)C)C(=O)N(C)CC(=O)N[C@@H](Cc2c[nH]c3ccccc23)C(=O)N[C@@H](CO)C(=O)N[C@@H](Cc2c[nH]c3ccccc23)C(=O)N1C) [Compound No. 10] = 16
• {CH2CO}-[3Pal][NMeA]NPHL[Sar]WSW[NMeNle][NMeNle]RCG-NH2 (thioether N-14; SMILES CCCC[C@H]1C(=O)N(C)[C@@H](CCCC)C(=O)N[C@@H](CCCNC(=N)N)C(=O)N[C@H](C(=O)NCC(N)=O)CSCC(=O)N[C@@H](Cc2cccnc2)C(=O)N(C)[C@@H](C)C(=O)N[C@@H](CC(N)=O)C(=O)N2CCC[C@H]2C(=O)N[C@@H](Cc2c[nH]cn2)C(=O)N[C@@H](CC(C)C)C(=O)N(C)CC(=O)N[C@@H](Cc2c[nH]c3ccccc23)C(=O)N[C@@H](CO)C(=O)N[C@@H](Cc2c[nH]c3ccccc23)C(=O)N1C) [Compound No. 38] = 46
